Documented pIC50 across a set of compounds
Target: WRN (BV08), human Werner helicase (Uniprot Q14191, amino acids 517-1235 with L1074F point mutation) (Homo sapiens (Human), UniProt Q14191, L1074F)
Sequence (Q14191 other isoform, or with tags, fused parts or gaps L1074F (already in the parent)): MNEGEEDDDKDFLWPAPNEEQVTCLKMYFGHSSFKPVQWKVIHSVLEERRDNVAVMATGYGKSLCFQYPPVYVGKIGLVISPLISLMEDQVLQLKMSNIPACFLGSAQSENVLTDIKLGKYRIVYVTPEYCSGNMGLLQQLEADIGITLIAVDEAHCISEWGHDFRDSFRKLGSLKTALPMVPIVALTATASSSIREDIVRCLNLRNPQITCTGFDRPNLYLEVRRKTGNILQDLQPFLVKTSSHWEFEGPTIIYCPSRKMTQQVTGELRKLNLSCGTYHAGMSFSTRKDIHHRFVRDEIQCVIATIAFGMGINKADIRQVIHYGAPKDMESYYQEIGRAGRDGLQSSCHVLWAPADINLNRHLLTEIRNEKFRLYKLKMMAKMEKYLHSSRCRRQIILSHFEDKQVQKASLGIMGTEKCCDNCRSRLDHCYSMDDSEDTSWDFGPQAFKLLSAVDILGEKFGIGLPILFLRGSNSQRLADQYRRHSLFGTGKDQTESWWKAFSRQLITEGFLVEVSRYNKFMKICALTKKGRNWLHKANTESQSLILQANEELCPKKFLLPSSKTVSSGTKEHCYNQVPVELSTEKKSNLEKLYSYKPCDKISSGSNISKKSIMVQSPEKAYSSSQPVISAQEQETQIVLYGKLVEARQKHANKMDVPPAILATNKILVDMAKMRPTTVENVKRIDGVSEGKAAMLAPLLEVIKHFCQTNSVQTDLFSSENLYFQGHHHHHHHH
Test: WRN (BV08) ADP-Glo assay
Conditions: class symbols A-E, read-out: ADP-Glo_hWRN_IC50
pIC50: −log10 of the molar value.

Check out these entries, answers already filled in.
[
  {
    "Compound": "CCc1c(N2CCN(C(=O)c3ncnc(C)c3O)[C@H]3CC[C@@H]32)c(=O)c2nc3nc(C)sc3nc2n1CC(=O)Nc1ccc(C(F)(F)F)cc1Cl [I-114]",
    "pIC50": "7.30 to 8.30"
  },
  {
    "Compound": "CCc1c(N2CCN(C(=O)c3ncnc(C)c3O)[C@H]3CC[C@@H]32)c(=O)c2nc(OC3CC3)cnc2n1CC(=O)Nc1ccc(C(F)(F)F)cc1Cl [I-102]",
    "pIC50": "≥ 8.30"
  },
  {
    "Compound": "CCc1c(N2CCN(C(=O)c3ncnc(C)c3O)CC2)c(=O)c2nc(N3CCNCC3)cnc2n1CC(=O)Nc1ccc(C(F)(F)F)cc1Cl [I-89]",
    "pIC50": "6.30 to 7.00"
  },
  {
    "Compound": "CCc1c(N2CCN(C(=O)c3ncnc(C)c3O)CC2)c(=O)c2nc(N3CCC4CC43)cnc2n1CC(=O)Nc1ccc(C(F)(F)F)cc1Cl (stereo not drawn) [I-93]",
    "pIC50": "7.30 to 8.30"
  },
  {
    "Compound": "CCc1c(N2CCN(C(=O)c3ncnc(C)c3O)C[C@@H]2C)c(=O)c2nc(N3CC[C@H]3COC)cnc2n1CC(=O)Nc1ccc(C(F)(F)F)cc1Cl [I-188]",
    "pIC50": "7.30 to 8.30"
  }
]

Below: the item to evaluate.
Inquiry: Name the recorded pIC50 of the item CCc1c(N2CCN(C(=O)c3ncnc(C)c3O)CC2)c(=O)c2nc(N(C)C)c(F)cc2n1CC(=O)Nc1ccc(C(F)(F)F)cc1Cl [I-109] in your answer.
Reply text: 7.30 to 8.30

* * *

System: p21 induction in HCT116 cells
Assay: p21 induction in HCT116 cells
Assay type: cell-based
Settings: Homo sapiens, HCT-116, 24 h, HCT116 cells, 24 h compound incubation; read-out: P21_EC50
pEC50: −log10 of the molar value.
pEC50: recorded values

Here are 3 molecules together with their reported answers.
[
  {
    "Mol": "CCc1c(N2CCN(C(=O)c3ncnc(C)c3O)[C@H]3CC[C@@H]32)c(=O)c2nc(OC)cnc2n1CC(=O)Nc1ccc(C(F)(F)F)cc1Cl",
    "Target": "p21 induction in HCT116 cells",
    "pEC50": "> 6.30"
  },
  {
    "Mol": "CCc1c(N2CCN(C(=O)c3ncnc(C)c3O)[C@@H]3CCC[C@H]32)c(=O)c2nc(N(C)C)cnc2n1CC(=O)Nc1ccc(C(F)(F)F)cc1Cl",
    "Target": "p21 induction in HCT116 cells",
    "pEC50": "< 5.30"
  },
  {
    "Mol": "CCc1c(N2CCN(C(=O)c3ncnc(C)c3O)CC2)c(=O)c2nc3cc(C)sc3nc2n1CC(=O)Nc1ccc(C(F)(F)F)cc1Cl",
    "Target": "p21 induction in HCT116 cells",
    "pEC50": "> 6.30"
  }
]

Shift focus to the following entry.
Inquiry: Quote p21 induction in HCT116 cells pEC50 for entry CCc1c(N2CCN(C(=O)c3ncnc(C)c3O)CC2)c(=O)c2nc(OC)cnc2n1CC(=O)Nc1ccc(C(F)(F)F)cc1Cl .
Reply text: < 5.30

* * *

Test system: p21 induction in HCT116 cells
Assay: p21 induction in HCT116 cells
Assay type: cell-based
Conditions: Homo sapiens, HCT-116, 24 h, HCT116 cells, 24 h compound incubation; read-out: P21_EC50
pEC50: −log10 of the molar value.
Listed here: items and their measured pEC50.

These solved cases illustrate the format of a correct answer.
[
  {
    "Compound": "CCc1c(N2CCN(C(=O)c3ncnc(C)c3O)CC2)c(=O)c2nc(N(C)CC)cnc2n1CC(=O)Nc1ccc(C(F)(F)F)cc1Cl [I-74]",
    "pEC50": "5.70 to 6.30"
  },
  {
    "Compound": "CCc1c(N2CCN(C(=O)c3ncnc(C)c3O)[C@H]3CC[C@H]32)c(=O)c2nc(N(C)C)cnc2n1CC(=O)Nc1ccc(C(F)(F)F)cc1Cl (racemic) [I-106]",
    "pEC50": "5.70 to 6.30"
  },
  {
    "Compound": "CCc1c(N2CCN(C(=O)c3ncnc(C)c3O)CC2)c(=O)c2nc(CCO)cnc2n1CC(=O)Nc1ccc(C(F)(F)F)cc1Cl [I-41]",
    "pEC50": "< 5.30"
  },
  {
    "Compound": "CCc1c(N2CCN(C(=O)c3c(F)cnc(OC)c3O)CC2)c(=O)c2ncc(C)nc2n1CC(=O)Nc1ccc(C(F)(F)F)cc1Cl [I-62]",
    "pEC50": "< 5.30"
  },
  {
    "Compound": "CCc1c(N2CCN(C(=O)c3ncnc(C)c3O)[C@@H]3CC[C@H]32)c(=O)c2nc(NC)cnc2n1CC(=O)Nc1ccc(C(F)(F)F)cc1Cl (single isomer, unassigned) [I-172]",
    "pEC50": "> 6.30"
  }
]

Inquiry: Specify pEC50 for CCc1c(N2CCN(C(=O)c3ncnc(C)c3O)[C@H]3CC[C@@H]32)c(=O)c2nc(N(C)C)cnc2n1CC(=O)Nc1ccc(OC(F)(F)F)cc1Cl [I-199] and stop.
Reply text: > 6.30

Inquiry: Look up and state reported pEC50 for CCc1c(N2CCN(C(=O)c3ncnc(C)c3O)C3(CC3)C2)c(=O)c2nc(N(C)C)cnc2n1CC(=O)Nc1ccc(C(F)(F)F)cc1Cl [I-176]
Reply text: < 5.30

Inquiry: Supply recorded pEC50 for CCc1c(N2CCN(C(=O)c3ncnc(C)c3O)CC2)c(=O)c2nc(C(=O)NC)cnc2n1CC(=O)Nc1ccc(C(F)(F)F)cc1Cl [I-54] here.
Reply text: < 5.30

Inquiry: Entry CCc1c(N2CCN(C(=O)c3ncnc(C)c3O)CC2)c(=O)c2nc(N3CC4CC4C3)cnc2n1CC(=O)Nc1ccc(C(F)(F)F)cc1Cl (stereo not shown) [I-156] needs its pEC50 filled in; supply it.
Reply text: 5.70 to 6.30

Inquiry: Specify measured pEC50 for CCc1c(N2CCN(C(=O)c3ncnc(C)c3O)CC2)c(=O)c2nc(C3(C#N)CC3)cnc2n1CC(=O)Nc1ccc(C(F)(F)F)cc1Cl [I-254] .
Reply text: 5.70 to 6.30

Inquiry: Return the recorded pEC50 value; entry: CCc1c(N2CCN(C(=O)c3ncnc(C)c3O)CC2)c(=O)c2nc(NC3CC3)cnc2n1CC(=O)Nc1ccc(C(F)(F)F)cc1Cl [I-165]
Reply text: 5.70 to 6.30

Inquiry: # return recorded pEC50 for input CCc1c(N2CCN(C(=O)c3ncnc(C)c3O)CC2)c(=O)c2nc(-c3ccnn3C)cnc2n1CC(=O)Nc1ccc(C(F)(F)F)cc1Cl [I-137]
Reply text: < 5.30

Inquiry: Provide only the value of recorded pEC50 for [2H]C([2H])([2H])Nc1cnc2c(n1)c(=O)c(N1CCN(C(=O)c3ncnc(C)c3O)[C@H]3CC[C@@H]31)c(CC)n2CC(=O)Nc1ccc(C(F)(F)F)cc1Cl [I-226]
Reply text: > 6.30

* * *

Biological target: WRN (BV08), human Werner helicase (Uniprot Q14191, amino acids 517-1235 with L1074F point mutation) (Homo sapiens (Human), UniProt Q14191, L1074F)
Test: WRN (BV08) ADP-Glo assay
Conditions: class symbols A-E, read-out: ADP-Glo_hWRN_IC50
Observation type: IC50

Some solved cases for reference:
[
  {
    "Compound": "CCc1c(N2CCN(C(=O)c3ncnc(C)c3O)CC2)c(=O)c2nc(C(F)F)c(C)nc2n1CC(=O)Nc1ccc(C(F)(F)F)cc1Cl",
    "IC50": "5 to 50 nM"
  },
  {
    "Compound": "CCc1c(N2CCN(C(=O)c3ncnc(C)c3O)CC2)c(=O)c2nc(/C=C/C(C)(C)O)cnc2n1CC(=O)Nc1ccc(C(F)(F)F)cc1Cl",
    "IC50": "5 to 50 nM"
  },
  {
    "Compound": "CCc1c(N2CCN(C(=O)c3ncnc(C)c3O)C[C@@H]2C)c(=O)c2nc(N3CCC3)cnc2n1CC(=O)Nc1ccc(C(F)(F)F)cc1Cl",
    "IC50": "5 to 50 nM"
  },
  {
    "Compound": "CCc1c(N2CCN(C(=O)c3ncnc(C)c3O)[C@H]3CC[C@@H]32)c(=O)c2nc(OC)cnc2n1CC(=O)Nc1ccc(C(F)(F)F)cc1Cl",
    "IC50": "≤ 5 nM"
  },
  {
    "Compound": "CCc1c(N2CCN(C(=O)c3ncnc(C)c3O)CC2)c(=O)c2nc(N3CC4CC4C3)cnc2n1CC(=O)Nc1ccc(C(F)(F)F)cc1Cl (centres unmarked)",
    "IC50": "5 to 50 nM"
  }
]

Inquiry: Identify the reported IC50 for the following entry. CCc1c(N2CCN(C(=O)c3ncnc(C)c3O)C3(CCC3)C2)c(=O)c2nc(N(C)C)cnc2n1CC(=O)Nc1ccc(C(F)(F)F)cc1Cl
Reply text: 50 to 100 nM

Inquiry: Specify measured IC50 for CCc1c(N2CCN(C(=O)c3nocc3O)CC2)c(=O)c2ncc(C)nc2n1CC(=O)Nc1ccc(C(F)(F)F)cc1Cl .
Reply text: 5 to 50 nM

Inquiry: Identify IC50 associated with the compound CCc1c(N2CCCN(C(=O)c3ncnc(C)c3O)CC2)c(=O)c2nc(N(C)C)cnc2n1CC(=O)Nc1ccc(C(F)(F)F)cc1Cl
Reply text: 5 to 50 nM

Inquiry: Look up and report measured IC50 for this entry: CCc1c(N2CCN(C(=O)c3ncnc(C)c3O)C[C@@H]2C)c(=O)c2nc(N3CC[C@@H]4C[C@@H]43)cnc2n1CC(=O)Nc1ccc(C(F)(F)F)cc1Cl (single isomer, unassigned)
Reply text: ≤ 5 nM

Reference source: patent US20250034136A1
